compounds and their reported solubility
Assay: physchem
Conditions: buffer, pH 7.4
Description: Solubility was determined at pH 7.4

Some entries whose results are on file:
CHEMICAL SMILES: Cc1sc(C(=O)Nc2nn[nH]n2)c(OC(C)C)c1Br
solubility: 3300 µg/mL

CHEMICAL SMILES: COc1sc(C(=O)Nc2nn[nH]n2)c(OC(C)C)c1Br
solubility: 1900 µg/mL

CHEMICAL SMILES: CC(C)Oc1c(Br)c(Br)n(C)c1C(=O)Nc1nn[nH]n1
solubility: 1900 µg/mL

CHEMICAL SMILES: COc1ccc2c(c1)c(OC(C)C)c(C(=O)Nc1nn[nH]n1)n2-c1ccccc1
solubility: 70 µg/mL

CHEMICAL SMILES: COc1ccc2sc(C(=O)Nc3nnn[nH]3)c(OC(C)C)c2c1
solubility: 1840 µg/mL

We next turn to a different compound, shown below.
Qu. Name the recorded solubility for COc1ccc2c(c1)c1oc(C(=O)Nc3nn[nH]n3)c(OC)c1n2-c1ccccc1 .
Ans. < 1 µg/mL

###

Experiment: physchem
Conditions: buffer, pH 7.4
Description: Log P value was determined at pH 7.4 using correlation (HPLC) method.
Quick reference: chromatographic logD of the listed items.
Write the value as a bare number.

CHEMICAL SMILES: Cc1sc(C(=O)Nc2nn[nH]n2)c(OC(C)C)c1Br
chromatographic logD: 1.72

CHEMICAL SMILES: COc1sc(C(=O)Nc2nn[nH]n2)c(OC(C)C)c1Br
chromatographic logD: 1.35

CHEMICAL SMILES: COc1ccc2sc(C(=O)Nc3nnn[nH]3)c(OC(C)C)c2c1
chromatographic logD: 1.78

CHEMICAL SMILES: CC(C)Oc1c(Br)c(Br)n(C)c1C(=O)Nc1nn[nH]n1
chromatographic logD: 2.52

CHEMICAL SMILES: COc1ccc2c(c1)c1oc(C(=O)Nc3nn[nH]n3)c(OC)c1n2-c1ccccc1
chromatographic logD: 2.8

Qu. For COc1ccc2c(c1)c(OC(C)C)c(C(=O)Nc1nn[nH]n1)n2-c1ccccc1 , what is its reported chromatographic logD?
Ans. 2.66

Qu. Moving on to COc1ccc(C(=O)Nc2nn[nH]n2)c(OC(C)C)c1I
Ans. 1.17
